Reference source for all entries: ChEMBL document CHEMBL1201862

- System: SF-539
- Run description: NCI tumour cell line growth inhibition, 48 h
Activity calls are given as the source filed them. No stated cut-off is given here; in the data, active = GI50 up to about 1.1 µM and inactive = higher.
Please answer using one outcome listed in TRUE for active, FALSE for inactive

Enquiry: Field: outcome | Entry: COC(=O)C1=C(C=O)C2C=CC1C2 (centres undefined)
Return: FALSE

Enquiry: Field: outcome | Entry: COc1ccccc1-n1c(=O)n(C)c(=O)n1C(C)(C)C
Return: FALSE

Enquiry: Field: outcome | Entry: CCN1CCC(CNC(=O)c2ccc(N)cc2)N1CC (centres undefined)
Return: FALSE

Enquiry: Field: outcome | Entry: COc1cc(N(C)C)ccc1C=c1c2ccccc2n2c1cc(-c1ccccc1)[n+]2C
Return: TRUE

----------
- Test system: A549
- Run description: NCI tumour cell line growth inhibition, 48 h
Calls of active or inactive are those of the source. Rule as the data show it: active = GI50 up to about 1.1 µM and inactive = higher.
Please answer using one outcome listed in active, inactive

Enquiry: Field: outcome | Entry: O=c1[nH]cc(C(F)(C(F)(F)F)C(F)(F)F)c(=O)[nH]1
Return: inactive

Enquiry: Field: outcome | Entry: COc1cc2c(/C=C3/C(=O)Nc4cc(C)c(O)cc43)c(Cl)[nH]c2cc1C
Return: inactive

Enquiry: Field: outcome | Entry: CC(C)(C)C1=CC(CCC(=O)Nc2ccccc2[N+](=O)[O-])=NC(S)N1 (stereo not given)
Return: inactive

Enquiry: Field: outcome | Entry: O=C(N/N=C(COc1ccccc1Cl)\N=C\c1ccncc1)c1ccncc1
Return: inactive

Enquiry: Field: outcome | Entry: Cc1ccccc1NC(=O)C(=O)CC(=O)c1sc(Nc2ccccc2[N+](=O)[O-])nc1C
Return: inactive

Enquiry: Field: outcome | Entry: CCOP(=O)(CN1CCNCCNCC1)OCC
Return: inactive

Enquiry: Field: outcome | Entry: O=c1cc(N2CCCC2)[nH]c(=O)n1Cc1ccccc1
Return: inactive

Enquiry: Field: outcome | Entry: COc1cc(NS(C)(=O)=O)ccc1Nc1c2ccccc2nc2ccccc12
Return: active

Enquiry: Field: outcome | Entry: CC(Oc1ccc2cc(C(=O)c3ccccc3)c(=O)oc2c1)C(=O)O (stereo not given)
Return: inactive

Enquiry: Field: outcome | Entry: O=C(Nc1ccc(Cl)cc1)/C(Cc1cccc[n+]1[O-])=N\Nc1ccc([N+](=O)[O-])cc1[N+](=O)[O-]
Return: inactive

Enquiry: Field: outcome | Entry: N/C(CSCCSC/C(N)=N/O)=N\O
Return: inactive

Enquiry: Field: outcome | Entry: Brc1ccc(-c2cc3c(cc2C2SCCS2)OCO3)cc1
Return: inactive

Enquiry: Field: outcome | Entry: COc1ccc(C2CC(c3sc(Nc4ccc(C)cc4)nc3C)=NN2)cc1 (stereo not given)
Return: inactive

Enquiry: Field: outcome | Entry: CN(C)CCNC(=O)c1ccc(NCCCN(C)CCCNc2ccc(C(=O)NCCN(C)C)c3nc4ccccc4c(O)c23)c2c(O)c3ccccc3nc12
Return: active

Enquiry: Field: outcome | Entry: O=CC1C[C@@H](N2C(=O)O[C@@H](c3ccccc3)[C@H]2c2ccccc2)[C@@H]1COCc1ccccc1 (stereo not given in full)
Return: inactive

Enquiry: Field: outcome | Entry: COc1ccc(NC(=O)CC(=O)NNC(Sc2ccccc2)c2cc(/N=N/c3ccc(Br)cc3)ccc2O)cc1 (stereo not given)
Return: inactive

Enquiry: Field: outcome | Entry: Cc1nnc(N/N=C(/C(=O)C(C#N)c2ccccc2)C(C#N)c2ccccc2)n1N (stereo not given)
Return: inactive

Enquiry: Field: outcome | Entry: Oc1ccc2ccccc2c1/N=N/c1ccc(Br)cc1
Return: inactive

Enquiry: Field: outcome | Entry: CO[C@@]12[C@H](COC(N)=O)C3=C(C(=O)C(C)=C(N)C3=O)N1C[C@H]1[C@@H]2N1C (stereo not given in full)
Return: active

Enquiry: Field: outcome | Entry: COc1ccc(O)c(C#N)c1C#N
Return: inactive

----------
- Test system: T47D
- Run description: NCI tumour cell line growth inhibition, 48 h
Calls of active or inactive are those of the source. No stated cut-off is given here; in the data, active = GI50 up to about 1.1 µM and inactive = higher.
Please answer using one outcome listed in T for active, F for inactive

Enquiry: Field: outcome | Entry: CCNC(C)(C)C(SS)c1ccc(Br)cc1 (configuration not stated)
Return: F

Enquiry: Field: outcome | Entry: OC[C@H]1O[C@@H]2O[C@@](COCc3ccccc3)([C@H](OCc3ccccc3)[C@H]2O)[C@@H]1OCc1ccccc1
Return: F

Enquiry: Field: outcome | Entry: C/C(=N\Nc1nc2ccccc2n1C)c1ccc2ccccc2n1
Return: T

Enquiry: Field: outcome | Entry: N[C@@H](CCC(=O)NCP(=O)(O)O)C(=O)O
Return: F

Enquiry: Field: outcome | Entry: COCN1C(=O)[C@@H]2CCCN2C(=O)c2cc([N+](=O)[O-])ccc21
Return: F

Enquiry: Field: outcome | Entry: O=c1oc2ccccc2cc1-c1csc(Nc2ccc(F)cc2)n1
Return: F

Enquiry: Field: outcome | Entry: O=C(O)Cc1cccc2c1OC(c1ccccc1)C(C(=O)c1ccccc1)C2=O (configuration not stated)
Return: F

Enquiry: Field: outcome | Entry: CO[C@H]1[C@@H](O)[C@H](O[C@@H]2C[C@H]3CC[C@@H]4[C@H](CC[C@]5(C)[C@@H](C6=CC(=O)OC6)CC[C@]45O)[C@@]3(C)[C@H](OC(C)=O)C2)O[C@@H](C)[C@H]1O
Return: F

Enquiry: Field: outcome | Entry: CCOP(=O)(C=C=C1CCC2[C@@H]3CCc4cc(OC)ccc4C3CC[C@]12C)OCC (some centres not stated)
Return: F

Enquiry: Field: outcome | Entry: N#CC12C(=O)N=C(N)C1(C#N)C(c1ccco1)NC1=C2CCCC1 (configuration not stated)
Return: F

Enquiry: Field: outcome | Entry: CC(=O)OCC1OC(n2c3c(c(-c4ccc(C)cc4)c(C#N)c2=S)C(=O)CC(C)(C)C3)C(OC(C)=O)C(OC(C)=O)C1OC(C)=O (configuration not stated)
Return: F

Enquiry: Field: outcome | Entry: CC1=CC(=O)[C@@H](O)[C@]2(C)[C@H]3[C@@]4(O)OC[C@]35[C@H]([C@@H](C)[C@H]4O)[C@@H](OC(=O)C(C)(C)CO)C(=O)O[C@@H]5C[C@@H]12
Return: T

Enquiry: Field: outcome | Entry: CCC(=O)O[C@H]1CC[C@H]2[C@@H]3CCC4=C/C(=N/NC(=O)c5cccc6c(=O)c7ccccc7[nH]c56)CC[C@]4(C)[C@H]3CC[C@]12C
Return: F

Enquiry: Field: outcome | Entry: O=C1SC(c2ccc(Cl)cc2)(c2ccc(Cl)cc2)c2ccccc21
Return: F

Enquiry: Field: outcome | Entry: O=C1c2ccccc2C(=O)N1n1c(Cc2ccc([N+](=O)[O-])cc2)n[nH]c1=O
Return: F

Enquiry: Field: outcome | Entry: CSc1nc(C)c(CCOC(C)=O)c(N=P(c2ccccc2)(c2ccccc2)c2ccccc2)n1
Return: F

Enquiry: Field: outcome | Entry: COc1cc([C@H]2c3cc4c(cc3O[C@@]3(O)COC(=O)[C@@H]23)OCO4)cc(OC)c1OC
Return: F

Enquiry: Field: outcome | Entry: N#Cc1c(N)oc(-c2ccc([N+](=O)[O-])cc2)c1C#N
Return: F

Enquiry: Field: outcome | Entry: COC(=O)C1(Cc2cccc(Cl)c2)CCCCCCN1C(=O)c1ccccc1 (configuration not stated)
Return: F

Enquiry: Field: outcome | Entry: O=C(/C=C/c1ccc(Cl)cc1)Oc1ccc(/C=C2\CCCCC2=O)cc1
Return: F

Enquiry: Field: outcome | Entry: COC(=O)c1cc(OC)c(OC)c(OC)c1-c1cc2c(cc1C=O)OCO2
Return: F

Enquiry: Field: outcome | Entry: CCCCC1Cc2ccccc2-c2nc3ccccc3n21 (configuration not stated)
Return: F

Enquiry: Field: outcome | Entry: Cc1cc2nc3n(c2cc1C)C(c1c(F)cccc1F)SC3 (configuration not stated)
Return: F

Enquiry: Field: outcome | Entry: O=[N+]([O-])C(/C=C(\Cl)[N+](=O)[O-])=C1Nc2ccccc2N1
Return: F

Enquiry: Field: outcome | Entry: O=CN1CCC23CC(O)CCC2C1Cc1cc(Oc2nnnn2-c2ccccc2)cc(O)c13 (configuration not stated)
Return: F

Enquiry: Field: outcome | Entry: COC1CC(C)([N+](=O)[O-])C(O)C(C)O1 (configuration not stated)
Return: F

Enquiry: Field: outcome | Entry: CN(C)CN1C(=O)S/C(=C2\C(=O)N(CN(C)C)c3ccccc32)C1=O
Return: F

Enquiry: Field: outcome | Entry: O=C1OC(c2ccc(Cl)cc2)=N/C1=C\c1ccccc1
Return: F

Enquiry: Field: outcome | Entry: CN(C)CCNC(=O)c1ccc(NCCCN(C)CCCNc2ccc(C(=O)NCCN(C)C)c3nc4ccccc4c(O)c23)c2c(O)c3ccccc3nc12
Return: T

Enquiry: Field: outcome | Entry: CN(Cc1cnc2nc(N)nc(N)c2n1)c1ccc(C(=O)N[C@@H](CCC(=O)O)C(=O)O)cc1 [METHOTREXATE]
Return: F

Enquiry: Field: outcome | Entry: CO[C@@]12[C@H](COC(N)=O)C3=C(C(=O)C(C)=C(N)C3=O)N1C[C@H]1[C@@H]2N1C (some centres not stated)
Return: F

Enquiry: Field: outcome | Entry: CN(O)C(=O)CCCC(=O)NCC(C)(C)CNC(=O)CCCC(=O)N(C)O
Return: F

Enquiry: Field: outcome | Entry: O=C(CN1CCCCC1)Nc1ccc2c(c1)C1Oc3ccccc3CC1CO2 (configuration not stated)
Return: F

Enquiry: Field: outcome | Entry: Cc1cc2[nH]c3c(C#N)c(-c4ccccc4)c(/C=N/c4cccc(C(F)(F)F)c4)c(=O)n3c2cc1C
Return: F

Enquiry: Field: outcome | Entry: COc1cc(N(C)C)ccc1C=c1c2ccccc2n2c1cc(-c1ccccc1)[n+]2C
Return: T

Enquiry: Field: outcome | Entry: O=C(c1cccc(F)c1F)N1CCc2c([nH]c3ccccc23)C1c1ccc2c(c1)OCO2 (configuration not stated)
Return: F

Enquiry: Field: outcome | Entry: N=C(N)SCc1ccc2c(c1)S(=O)(=O)c1ccccc1O2
Return: F
